Molecular target: human recombinant ERβ (Homo sapiens)
Sequence (Q92731 whole entry): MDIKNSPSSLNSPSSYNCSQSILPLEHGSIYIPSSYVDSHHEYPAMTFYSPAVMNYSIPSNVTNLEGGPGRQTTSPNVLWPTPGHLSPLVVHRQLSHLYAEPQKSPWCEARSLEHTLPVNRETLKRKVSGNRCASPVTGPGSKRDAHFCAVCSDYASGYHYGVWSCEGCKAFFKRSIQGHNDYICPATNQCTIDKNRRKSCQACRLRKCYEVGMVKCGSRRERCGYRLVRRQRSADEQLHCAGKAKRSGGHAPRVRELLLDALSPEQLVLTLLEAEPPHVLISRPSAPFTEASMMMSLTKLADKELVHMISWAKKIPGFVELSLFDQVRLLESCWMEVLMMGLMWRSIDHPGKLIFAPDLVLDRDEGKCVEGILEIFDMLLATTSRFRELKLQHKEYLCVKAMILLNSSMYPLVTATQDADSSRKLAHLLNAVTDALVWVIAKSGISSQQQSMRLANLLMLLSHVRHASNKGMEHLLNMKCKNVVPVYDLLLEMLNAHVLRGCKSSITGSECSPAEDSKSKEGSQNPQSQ
Assay: biochemical
property: IC50
Hey, just the number and the unit after it is fine.

// Input: O=C(/C=C/c1ccc(O)cc1)c1ccc(O)cc1O . Output its IC50 only.
7.8 µM

====

Target: ERα (Homo sapiens, UniProt P03372)
Sequence (P03372 whole entry): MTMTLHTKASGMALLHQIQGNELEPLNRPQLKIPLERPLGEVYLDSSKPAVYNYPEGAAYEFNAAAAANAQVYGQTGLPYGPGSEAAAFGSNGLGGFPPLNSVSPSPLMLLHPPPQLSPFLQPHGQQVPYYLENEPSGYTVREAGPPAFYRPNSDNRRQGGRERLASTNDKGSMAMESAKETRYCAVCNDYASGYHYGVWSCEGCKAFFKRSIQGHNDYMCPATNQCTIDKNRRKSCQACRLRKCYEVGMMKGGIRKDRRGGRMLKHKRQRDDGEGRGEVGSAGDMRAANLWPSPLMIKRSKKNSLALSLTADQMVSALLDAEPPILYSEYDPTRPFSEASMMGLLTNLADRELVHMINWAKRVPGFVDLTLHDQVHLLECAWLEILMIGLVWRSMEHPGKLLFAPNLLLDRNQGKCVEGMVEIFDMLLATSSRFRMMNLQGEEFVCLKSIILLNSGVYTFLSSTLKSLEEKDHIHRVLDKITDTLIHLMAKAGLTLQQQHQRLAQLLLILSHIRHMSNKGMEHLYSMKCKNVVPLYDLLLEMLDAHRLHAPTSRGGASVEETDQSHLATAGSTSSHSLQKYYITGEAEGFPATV
Test: biochemical
property: IC50

// fetch IC50 given entry O=C1C[C@@H](c2ccc(O)cc2)Oc2cc(O)ccc21 [LigF, liquiritigenin]
> 200 µM

Value source: paper PMC3709979
